Each entry below carries its measured AC50, system: Sodium-dependent noradrenaline transporter (Homo sapiens, UniProt P23975). Also: assay procedure not described here.
Sequence (P23975 whole entry): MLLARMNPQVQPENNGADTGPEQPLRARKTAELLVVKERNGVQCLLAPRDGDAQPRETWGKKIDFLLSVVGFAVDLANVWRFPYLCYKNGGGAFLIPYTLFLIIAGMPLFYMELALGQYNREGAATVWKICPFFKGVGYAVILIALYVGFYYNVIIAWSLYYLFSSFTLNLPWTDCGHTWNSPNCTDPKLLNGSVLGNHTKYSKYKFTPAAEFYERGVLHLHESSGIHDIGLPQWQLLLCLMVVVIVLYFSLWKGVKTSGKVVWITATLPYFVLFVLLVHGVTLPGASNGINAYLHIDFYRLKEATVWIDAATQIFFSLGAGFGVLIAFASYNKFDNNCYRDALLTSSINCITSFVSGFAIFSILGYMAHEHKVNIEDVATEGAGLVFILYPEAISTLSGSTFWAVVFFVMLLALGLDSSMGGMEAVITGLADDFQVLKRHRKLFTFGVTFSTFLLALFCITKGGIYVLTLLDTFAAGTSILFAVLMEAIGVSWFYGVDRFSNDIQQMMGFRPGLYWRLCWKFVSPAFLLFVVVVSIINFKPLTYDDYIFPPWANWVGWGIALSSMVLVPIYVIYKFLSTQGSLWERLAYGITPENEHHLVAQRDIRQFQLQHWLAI
reported_metric: AC50

{"molecule": "NS(=O)(=O)c1cc2c(cc1Cl)NCNS2(=O)=O [HYDROCHLOROTHIAZIDE]", "test_target": "Sodium-dependent noradrenaline transporter (Homo sapiens, UniProt P23975)", "value": "> 10 µM"}
{"molecule": "CC(C(=O)O)c1ccc(C(=O)c2cccs2)cc1 (centres undefined)", "test_target": "Sodium-dependent noradrenaline transporter (Homo sapiens, UniProt P23975)", "value": "> 10 µM"}
{"molecule": "COc1c(N2CCNC(C)C2)c(F)cc2c(=O)c(C(=O)O)cn(C3CC3)c12 (centres undefined)", "test_target": "Sodium-dependent noradrenaline transporter (Homo sapiens, UniProt P23975)", "value": "> 10 µM"}
{"molecule": "O=C(O)CCCc1ccccc1", "test_target": "Sodium-dependent noradrenaline transporter (Homo sapiens, UniProt P23975)", "value": "> 10 µM"}
{"molecule": "CC(=O)NS(=O)(=O)c1ccc(N)cc1 [SULFACETAMIDE]", "test_target": "Sodium-dependent noradrenaline transporter (Homo sapiens, UniProt P23975)", "value": "> 10 µM"}
{"molecule": "O=C(OCCN1CCOCC1)c1cccnc1Nc1cccc(C(F)(F)F)c1 [MORNIFLUMATE]", "test_target": "Sodium-dependent noradrenaline transporter (Homo sapiens, UniProt P23975)", "value": "17 µM"}
{"molecule": "CN1C(=O)COc2c(C(=O)NC3CN4CCC3CC4)cc(Cl)cc21 (centres undefined)", "test_target": "Sodium-dependent noradrenaline transporter (Homo sapiens, UniProt P23975)", "value": "> 30 µM"}
{"molecule": "Cc1c(C(=O)Nc2ccc(N3C[C@@H](C)O[C@@H](C)C3)nc2)cccc1-c1ccc(OC(F)(F)F)cc1", "test_target": "Sodium-dependent noradrenaline transporter (Homo sapiens, UniProt P23975)", "value": "> 10 µM"}
{"molecule": "COc1ccc(C(=O)NCc2ccc(OCCN(C)C)cc2)cc1OC [ITOPRIDE]", "test_target": "Sodium-dependent noradrenaline transporter (Homo sapiens, UniProt P23975)", "value": "> 30 µM"}

----------
Below, each entry is listed alongside its reported AC50.
- test_target: Endothelin receptor type B (Homo sapiens, UniProt P24530); also: assay procedure not described here
- Sequence (P24530 whole entry): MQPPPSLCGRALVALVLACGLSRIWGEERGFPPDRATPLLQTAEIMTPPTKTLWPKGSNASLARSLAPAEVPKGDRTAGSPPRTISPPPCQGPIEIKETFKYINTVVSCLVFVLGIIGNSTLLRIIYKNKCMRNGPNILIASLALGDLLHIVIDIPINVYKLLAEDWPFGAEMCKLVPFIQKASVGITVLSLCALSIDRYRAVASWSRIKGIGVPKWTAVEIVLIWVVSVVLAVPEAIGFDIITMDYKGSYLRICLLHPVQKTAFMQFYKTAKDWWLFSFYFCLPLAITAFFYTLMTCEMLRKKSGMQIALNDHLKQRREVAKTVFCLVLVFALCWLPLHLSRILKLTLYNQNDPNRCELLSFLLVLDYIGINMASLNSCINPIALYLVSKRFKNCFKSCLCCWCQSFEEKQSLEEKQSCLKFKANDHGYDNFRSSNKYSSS

{"compound": "CN1CCc2cccc3c2[C@H]1Cc1ccc(O)c(O)c1-3 [APOMORPHINE]", "AC50": "> 30 µM"}
{"compound": "CN(CCOc1ccc(NS(C)(=O)=O)cc1)CCc1ccc(NS(C)(=O)=O)cc1 [DOFETILIDE]", "AC50": "> 30 µM"}
{"compound": "Oc1ncnc2[nH]ncc12 [ALLOPURINOL]", "AC50": "> 30 µM"}
{"compound": "O=C(CCCCCCC(=O)Nc1ccccc1)NO [VORINOSTAT]", "AC50": "> 10 µM"}
{"compound": "CCNC(C)Cc1cccc(C(F)(F)F)c1 (stereo not given) [FENFLURAMINE]", "AC50": "> 30 µM"}

----------
Below, each entry is listed alongside its reported AC50.
- test_target: Prostaglandin G/H synthase 1 (Rattus norvegicus); also: assay procedure not described here
- Sequence (Q63921 whole entry): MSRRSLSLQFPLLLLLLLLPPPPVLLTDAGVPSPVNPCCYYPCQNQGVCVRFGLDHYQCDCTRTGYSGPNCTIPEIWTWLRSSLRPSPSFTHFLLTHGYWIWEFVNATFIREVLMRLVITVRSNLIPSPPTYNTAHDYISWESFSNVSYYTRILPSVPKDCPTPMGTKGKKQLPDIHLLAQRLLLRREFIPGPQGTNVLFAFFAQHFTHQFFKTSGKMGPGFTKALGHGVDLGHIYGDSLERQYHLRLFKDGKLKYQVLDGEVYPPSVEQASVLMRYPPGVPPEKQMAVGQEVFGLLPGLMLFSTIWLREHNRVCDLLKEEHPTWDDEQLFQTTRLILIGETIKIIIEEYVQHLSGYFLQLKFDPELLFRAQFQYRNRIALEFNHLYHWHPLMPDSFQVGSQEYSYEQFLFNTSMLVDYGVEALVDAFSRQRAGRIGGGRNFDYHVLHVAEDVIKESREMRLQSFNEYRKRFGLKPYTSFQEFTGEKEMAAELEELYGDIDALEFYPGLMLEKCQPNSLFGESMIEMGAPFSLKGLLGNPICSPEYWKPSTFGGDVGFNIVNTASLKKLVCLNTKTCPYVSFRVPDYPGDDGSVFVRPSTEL
- Assay type: functional

{"compound": "C1COC(NC(C2CC2)C2CC2)=N1", "AC50": "> 30 µM"}
{"compound": "O=C(O)c1cccc(-c2noc(-c3ccccc3F)n2)c1", "AC50": "> 30 µM"}
{"compound": "CN1C(=O)CC(C)(c2ccccc2)C1=O (configuration not stated) [METHSUXIMIDE]", "AC50": "> 10 µM"}
{"compound": "O=C(O)Cc1cn(-c2ccccc2)nc1-c1ccc(Cl)cc1", "AC50": "19 µM"}
{"compound": "CNC(=O)c1cc(Oc2ccc(NC(=O)Nc3ccc(Cl)c(C(F)(F)F)c3)cc2)ccn1", "AC50": "> 30 µM"}
{"compound": "CN1CCCN=C1COC(=O)C(O)(c1ccccc1)C1CCCCC1 (configuration not stated)", "AC50": "> 10 µM"}
{"compound": "COc1ccc(C(=O)NCc2ccc(OCCN(C)C)cc2)cc1OC [ITOPRIDE]", "AC50": "> 10 µM"}
{"compound": "Cc1c(Cl)cccc1Nc1ccccc1C(=O)O", "AC50": "0.6 µM"}
{"compound": "COC(=O)N[C@H](C(=O)N1CCC[C@H]1c1nc(-c2ccc(-c3ccc(-c4c[nH]c([C@@H]5CCCN5C(=O)[C@@H](NC(=O)OC)C(C)C)n4)cc3)cc2)c[nH]1)C(C)C", "AC50": "> 30 µM"}
{"compound": "NC(=O)C[S+]([O-])C(c1ccccc1)c1ccccc1 (configuration not stated)", "AC50": "> 30 µM"}
{"compound": "Cc1ccc(C(=O)c2cc(O)c(O)c([N+](=O)[O-])c2)cc1", "AC50": "12.7 µM"}
{"compound": "CCN(CC)CCNC(=O)c1cc(Cl)c(N)cc1OC [METOCLOPRAMIDE]", "AC50": "> 30 µM"}
{"compound": "CO/N=C(\\C(=O)N[C@@H]1C(=O)N2C(C(=O)[O-])=C(C[N+]3(C)CCCC3)CS[C@H]12)c1csc(N)n1", "AC50": "> 300 µM"}
{"compound": "NC1=NC(=O)C(c2ccccc2)O1 (configuration not stated)", "AC50": "> 30 µM"}
{"compound": "NS(=O)(=O)c1cc(-c2nnn[nH]2)c(NCc2cccs2)cc1Cl [AZOSEMIDE]", "AC50": "19 µM"}
{"compound": "CC(Cc1ccccc1)NCCC(c1ccccc1)c1ccccc1 (configuration not stated)", "AC50": "> 30 µM"}
{"compound": "C#CC1(OC(N)=O)CCCCC1 [ETHINAMATE]", "AC50": "> 10 µM"}
{"compound": "CCc1ccc(CCOc2ccc(CC3SC(=O)NC3=O)cc2)nc1 (configuration not stated)", "AC50": "> 30 µM"}
{"compound": "CC(C)NCC(O)COc1ccc(COCCOC(C)C)cc1 (configuration not stated)", "AC50": "> 30 µM"}
{"compound": "COc1ccc2cccc(CCNC(C)=O)c2c1", "AC50": "> 30 µM"}
{"compound": "CCC[C@@H]1C[C@@H](C(=O)N[C@@H]([C@H]2O[C@H](SC)[C@H](O)[C@@H](O)[C@H]2O)[C@H](C)Cl)N(C)C1", "AC50": "> 30 µM"}
{"compound": "CCN(CC)CCOC(=O)c1ccc(N)cc1", "AC50": "> 30 µM"}
{"compound": "COC(=O)C1=C(C)NC(C)=C(C(=O)OCC(C)C)C1c1ccccc1[N+](=O)[O-] (configuration not stated)", "AC50": "> 10 µM"}
{"compound": "C[N+](C)(C)CCOC(N)=O", "AC50": "> 10 µM"}
{"compound": "C[C@H]1C[C@@H]2[C@H]([C@@H](O)C[C@@]3(C)[C@H]2CC[C@]3(O)C(=O)COC(=O)CCC(=O)O)[C@@]2(C)C=CC(=O)C=C12 [METHYLPREDNISOLONE HEMISUCCINATE]", "AC50": "> 30 µM"}
{"compound": "Cc1cc(-c2ccccc2)nnc1NCCN1CCOCC1", "AC50": "> 30 µM"}
{"compound": "Oc1ncnc2[nH]ncc12", "AC50": "> 30 µM"}
{"compound": "CCCCCN(C)CCC(O)(P(=O)(O)O)P(=O)(O)O", "AC50": "> 30 µM"}
{"compound": "CN(CCCN1c2ccccc2CCc2ccccc21)CC(=O)c1ccc(Cl)cc1", "AC50": "1.3 µM"}
{"compound": "COC(=O)[C@@H]1CC2=CC(=O)CC[C@]2(C)[C@@]23O[C@@H]2C[C@@]2(C)[C@@H](CC[C@@]24CCC(=O)O4)[C@H]13", "AC50": "> 30 µM"}
{"compound": "COc1ccc2c(c1)c(CC(=O)OCC(=O)O)c(C)n2C(=O)c1ccc(Cl)cc1", "AC50": "30 µM"}
{"compound": "Cc1c(O)c(=O)ccn1C", "AC50": "> 3 µM"}
{"compound": "NC(=O)c1cnccn1 [PYRAZINAMIDE]", "AC50": "> 30 µM"}
{"compound": "CS(=O)(=O)Nc1cc2occ(NC=O)c(=O)c2cc1Oc1ccccc1", "AC50": "> 30 µM"}
{"compound": "O=C(CCCCC(=O)Nc1c(I)cc(I)c(C(=O)O)c1I)Nc1c(I)cc(I)c(C(=O)O)c1I [IODIPAMIDE]", "AC50": "> 10 µM"}
{"compound": "CC(C(O)c1ccc(O)cc1)N1CCC(Cc2ccccc2)CC1 (configuration not stated)", "AC50": "> 30 µM"}
{"compound": "COc1ccc2c(c1)C(=O)N(CCc1ccc(S(=O)(=O)NC(=O)NC3CCCCC3)cc1)C(=O)C2(C)C", "AC50": "> 30 µM"}
